B1: RNA-binding E3 ubiquitin-protein ligase MEX3C, residues 325 to 391; numbered along this chain, Q5U5Q3 (parent)
chain: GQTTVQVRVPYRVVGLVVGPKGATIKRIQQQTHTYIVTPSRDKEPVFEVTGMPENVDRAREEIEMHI

- Variants of: B1
- Assay Details: abundance fitness (aPCA) (normalised: wild type 0, dead -1); higher = more abundant; growth selection in yeast, the domain comes from the species named
- Test Parameters: Homo sapiens
Test Readout: abundance fitness

# example entries with known answers
GQTTVQVRVPYRVVGLVVGPKGATIKRIQQQTHTYIVTPSRDKEPVFEVTLMPENVDRAREEIEMHI -0.794
GQTTVQVRVPYRVVGLVVGPKGATIKRIQQQTHTYIVTPSRDKEPVFGVTGMPENVDRAREEIEMHI -0.748
GQTTVQVRVPYRVVGLVVGPKGATIKRIQQQTHTYIVCPSRDKEPVFEVTGMPENVDRAREEIEMHI 0.005
GQTTVQVRVPYRVVGLVVGPKGATIKRIQQQTHTYIVTPSRKKEPVFEVTGMPENVDRAREEIEMHI -0.139
GQTTVQVRVPYRVVGLVVGPKGATIKRIQQQTHYYIVTPSRDKEPVFEVTGMPENVDRAREEIEMHI -1.07

QUERY: Please look up its abundance fitness: GQTTVQVRVPYRVVGLVVGPKGATIKRIQQQTHTYIVTPSRDKEPVFEVTGTPENVDRAREEIEMHI
RESULT: 0.185

QUERY: # get_value(readout='abundance fitness', item= GQTTVQVRVPYRVVGLVVGTKGATIKRIQQQTHTYIVTPSRDKEPVFEVTGMPENVDRAREEIEMHI )
RESULT: -0.472

QUERY: What does the data say about its abundance fitness? Entry: GQTTVQVRVPYRVVGLVVGPKGATIKRIQQQTHTYEVTPSRDKEPVFEVTGMPENVDRAREEIEMHI
RESULT: -1.04

QUERY: I am curious: what abundance fitness value has been reported for GQTTVQVRVPYRVVGLVVGPKGATIKRIQQQTHTYIKTPSRDKEPVFEVTGMPENVDRAREEIEMHI ?
RESULT: 0.216

QUERY: What value of abundance fitness has been reported for the following variant? GQTTVQVRVPYRVVGLVVGPKGATIKRIQQQTHTYIVTPSRDKEPVFEVTGMPCNVDRAREEIEMHI
RESULT: -0.482

QUERY: For the variant GQTTVQVRVPYRVVGLVVGPKGATIKRIQQQTHTYIVTWSRDKEPVFEVTGMPENVDRAREEIEMHI , what abundance fitness is on record?
RESULT: -0.58
